Target: Luciferin 4-monooxygenase (Photinus pyralis)
Experiment: qHTS profiling assay for firefly luciferase inhibitor/activator using purifed enzyme and Km concentrations of substrates (counterscreen for miR-21 project); note: nearly all actives have a fitted effect of over 55% in size
Conditions: purified FLuc, luminescence inhibition; series mostly up to 57.5 µM
Out of some 360,000 compounds screened, about 25,000 (6.9%) were called active. Another 9% or so got no clear call; they are omitted. Calls come from the whole dose curve; as a rule, active = well fitted inhibition curve with a large enough effect; inconclusive = small, poorly fitted or top-dose-only effect; inactive = flat fitted curve, though single readings scatter. This is one part of a sample in which actives are shown more often than they occur.
Classes used: active, inactive

| Sample smiles | Cat |
| --- | --- |
| COc1ccc(NC(=O)c2cnc(Nc3ccc(C)c(Cl)c3)c3ccccc23)cc1OC | inactive |
| COc1cccc(CNC(=O)Cn2ncn3c(cc4ccccc43)c2=O)c1 | inactive |
| CCn1cc(C(=O)NCc2ccccc2)c(=O)c2cc(S(=O)(=O)N3CCCCC3)ccc21 | inactive |
| COc1ccc(N2CCN(c3nc(-c4ccccc4F)nc4ccccc34)CC2)cc1 | inactive |
| COc1cccc(NC(=O)C2CCN(c3cc(C)nc4c(-c5ccc(Cl)cc5)c(C)nn34)CC2)c1 | inactive |
| Cc1cc(-c2csc(N)n2)c(C)n1-c1ccccc1 | active |
| CCOC(=O)c1cc(-c2ccccc2)n(CCC(=O)Nc2ccccc2CC)c1C | inactive |
| Cc1cc(C)c(S(=O)(=O)N2CCC(C(=O)OCc3c(C)noc3C)CC2)c(C)c1 | inactive |

These data points were gathered from PubChem BioAssay AID588342.
